# Test system: 755483-174-R-J1-PDC complex spheroid growth, percent test/control
# Assay Remarks: Anticancer human tumor 755483-174-R-J1-PDC patient-derived rhabdomyosarcoma cell line growth inhibition [Asc]
# Details: second compound 1 µM; first compound 0.316 µM; active compounds read low
Attribute Measured: viability, T/C

Input line: What does the data say about its viability, T/C? Entry: CCN1CCN(Cc2ccc(Nc3ncc(F)c(-c4cc(F)c5nc(C)n(C(C)C)c5c4)n3)nc2)CC1 + CNC(C)C(=O)NC1CN(S(=O)(=O)c2cccc(S(=O)(=O)N3CCC4CCC(C(=O)NC(c5ccccc5)c5ccccc5)N4C(=O)C(NC(=O)C(C)NC)C3)c2)CCC2CCC(C(=O)NC(c3ccccc3)c3ccccc3)N2C1=O
Output line: 26.1%

Input line: // next record CCN1CCN(Cc2ccc(Nc3ncc(F)c(-c4cc(F)c5nc(C)n(C(C)C)c5c4)n3)nc2)CC1 + Cc1c(S(C)(=O)=O)c(-c2cc(F)cc(N3CCN(c4ccc(NS(=O)(=O)c5ccc(NC(CCN6CCC(C(=O)OCCCP(=O)(O)O)CC6)CSc6ccccc6)c(S(=O)(=O)C(F)(F)F)c5)cc4)CC3)c2)c(-c2ccc(Cl)cc2)n1C(C)C
Output line: 49.5%

Input line: What about this compound? O=C(c1cc(Cc2n[nH]c(=O)c3ccccc23)ccc1F)N1CCN(C(=O)C2CC2)CC1 + Cc1c(S(C)(=O)=O)c(-c2cc(F)cc(N3CCN(c4ccc(NS(=O)(=O)c5ccc(NC(CCN6CCC(C(=O)OCCCP(=O)(O)O)CC6)CSc6ccccc6)c(S(=O)(=O)C(F)(F)F)c5)cc4)CC3)c2)c(-c2ccc(Cl)cc2)n1C(C)C
Output line: 24.2%

* * *

# Test system: 755483-174-R-J1-PDC complex spheroid growth, percent test/control
# Assay Remarks: Anticancer human tumor 755483-174-R-J1-PDC cell line growth inhibition [Asc];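 further: spheroids exposed to compounds for seven days before readout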
# Details: second compound 0.1 µM; first compound 0.001 µM; active compounds read low
Please respond with reported viability, T/C for every item in the list.

Input line: What measured viability, T/C goes with Cn1ncnc1[C@H]1c2n[nH]c(=O)c3cc(F)cc(c23)N[C@@H]1c1ccc(F)cc1 + Cc1c(S(C)(=O)=O)c(-c2cc(F)cc(N3CCN(c4ccc(NS(=O)(=O)c5ccc(NC(CCN6CCC(C(=O)OCCCP(=O)(O)O)CC6)CSc6ccccc6)c(S(=O)(=O)C(F)(F)F)c5)cc4)CC3)c2)c(-c2ccc(Cl)cc2)n1C(C)C ?
Output line: 50.7%

Input line: What about NC1CCC(NC2CC2c2ccccc2)CC1 (centres undefined) + Cc1c(S(C)(=O)=O)c(-c2cc(F)cc(N3CCN(c4ccc(NS(=O)(=O)c5ccc(NC(CCN6CCC(C(=O)OCCCP(=O)(O)O)CC6)CSc6ccccc6)c(S(=O)(=O)C(F)(F)F)c5)cc4)CC3)c2)c(-c2ccc(Cl)cc2)n1C(C)C ?
Output line: 31.1%

Input line: Now consider Cn1ncnc1[C@H]1c2n[nH]c(=O)c3cc(F)cc(c23)N[C@@H]1c1ccc(F)cc1 + CNC(C)C(=O)NC1CN(S(=O)(=O)c2cccc(S(=O)(=O)N3CCC4CCC(C(=O)NC(c5ccccc5)c5ccccc5)N4C(=O)C(NC(=O)C(C)NC)C3)c2)CCC2CCC(C(=O)NC(c3ccccc3)c3ccccc3)N2C1=O .
Output line: 33.2%

Input line: Now this one: NC1CCC(NC2CC2c2ccccc2)CC1 (centres undefined) + CNC(C)C(=O)NC1CN(S(=O)(=O)c2cccc(S(=O)(=O)N3CCC4CCC(C(=O)NC(c5ccccc5)c5ccccc5)N4C(=O)C(NC(=O)C(C)NC)C3)c2)CCC2CCC(C(=O)NC(c3ccccc3)c3ccccc3)N2C1=O
Output line: 27.7%

Hello, the source for this data is PubChem BioAssay AID1963434, in case you need it.
